System: CP252
Assay: qHTS profiling for inhibitors of Plasmodium falciparum proliferation (AID 504749); note: nearly all actives have a fitted effect of over 60% in size; note: potency is the fitted concentration of half-maximal effect
Conditions: P. falciparum in erythrocytes, SYBR Green DNA, 72 h; series mostly up to 28.7 µM
Results filed as inconclusive are left out. Calls of active or inactive are those of the source. Calls come from the whole dose curve; as a rule, active = well fitted inhibition curve with a large enough effect; inconclusive = small, poorly fitted or top-dose-only effect; inactive = flat fitted curve, though single readings scatter.
observation-type: Potency

COc1cccc2c1C(=O)c1c(O)c3c(c(O)c1C2=O)C[C@@](O)(C(=O)CO)C[C@@H]3O[C@H]1C[C@H](N)[C@H](OC2CCCCO2)[C@H](C)O1 (some centres undefined) : 11.2 µM (active)
Nc1nc2c(c(=O)[nH]1)N(C=O)[C@H](CNc1ccc(C(=O)N[C@@H](CCC(=O)O)C(=O)O)cc1)CN2 : inactive
COc1ccc2c(c1OC)C(=O)OC2[C@H]1c2c(cc3c(c2OC)OCO3)CCN1C (some centres undefined) : inactive
CCC(C(=O)O)C1CCC(C)C(C(C)C(O)C(C)C(=O)C(CC)C2OC3(C=CC(O)[C@@]4(CC[C@](C)(C5CC[C@@](O)(CC)C(C)O5)O4)O3)C(C)CC2C)O1 (some centres undefined) : 0.891 µM (active)

----------
Experiment: qHTS of pediatric cancer cell lines to identify multiple opportunities for drug repurposing: Primary screen for control Hh wild type fibroblast cells (AID 1347106); note: nearly all actives have a fitted effect of over 55% in size
Details: Hh wild-type fibroblast viability, CellTiter-Glo luminescence, 48 h; series mostly up to 46 µM
Inconclusive results are not listed. Calls of active or inactive are those of the source. The call rests on the fitted dose curve; in most records, active means well fitted cell-killing curve with a large enough effect; inconclusive means small, poorly fitted or top-dose-only effect; inactive means flat fitted curve, though single readings scatter.
Respond with a class label; see True (active), False (inactive)

COc1ccc(CCC(=O)c2c(O)cc(O[C@@H]3O[C@H](CO)[C@@H](O)[C@H](O)[C@@H]3O[C@@H]3O[C@@H](C)[C@H](O)[C@@H](O)[C@@H]3O)cc2O)cc1O : True

Could you kindly confirm the outcome this assay logged for `Nc1ccc(C(=O)Nc2cccc(-c3nc(N4CCOCC4)c4oc5ncccc5c4n3)c2)cn1` ?
False

Look up the recorded call for `N#Cc1ccc(COC[C@H]2O[C@@H](n3c(NCc4ccc(Cl)c(Cl)c4)nc4c(N)ncnc43)[C@@H](O)[C@@H]2O)cc1` in this test.
False

Dear colleague, could you share the recorded outcome for `CCOc1cc2c(c(F)c1OCC)C(=N)N(CC(=O)c1cc(N3CCOCC3)c(OC)c(C(C)(C)C)c1)C2` when you have a moment?
False

----------
Target: Phenylethanolamine N-methyltransferase (Homo sapiens)
Experiment: Confirmatory Screen for Target Class Profiling of Small Molecule Inhibitors of Methyltransferases (AID 1745852)
Settings: MTase-Glo luminescence, SAH detection, recombinant enzyme; measured here: PNMT max response; stronger effect = lower value
observation-type: activity (%)
One number for each entry, in %.

c1ccc2c(Oc3nc(Nc4ccc(N5CCOCC5)cc4)c4ncn(C5CCCCC5)c4n3)cccc2c1 : -3.02
Cc1cnc(Nc2ccc(CN3CCOCC3)cc2)nc1Nc1cccc(S(=O)(=O)NC(C)(C)C)c1 : -4.34
c1cc(N[C@@H]2CCNC2)nc(-c2cnc3ccc(-c4cn[nH]c4)cn23)c1 : -12.3
CCOC(=O)[C@@H](N)Cc1ccc(-c2cc(O[C@H](c3ccc(Cl)cc3-n3ccc(C)n3)C(F)(F)F)nc(N)n2)cc1 : -6.64
N#Cc1c(C2CCNCC2)cc(-c2c(O)cccc2OCC2CC2)nc1N : -6.86

Continue with the compound presented below.
Fill blank: measured activity of the compound `COc1cc2c(Nc3ccc(Cl)c(Cl)c3F)ncnc2cc1OCC1C[C@@H]2CN(C)C[C@H]2C1` is ____.
-68.7

----------
Experiment: High-throughput drug toxicity screening in the BPDCN cell line Cal-1 (AID 1224825);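 note: cells exposed to compounds for 48 h; 100% = DMSO and 0% = bortezomib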
Settings: Cal-1 BPDCN cell viability, qHTS; at 45.8 µM (top of the series) unless noted
Source text: Blastic plasmacytoid dendritic cell neoplasm (BPDCN) is a rare, aggressive and largely incurable hematologic malignancy originating from plasmacytoid dendritic cells (pDCs). Although an initial response to chemotherapy is common, BPDCN prognosis is extremely poor and most patients relapse with drug-resistant disease leading to a median overall survival of ~1 year after diagnosis. […]
observation-type: viability (% of control) (%)
One number for each entry, in %.

These recorded examples may help you get a feel for the data.
COc1cc(O)c2c(c1)C1OC1C[C@H](O)[C@H](O)C(=O)C=CC[C@H](C)OC2=O (stereo partly drawn) : 5.65
O=C(O)C=Cc1ccc(Cn2ccnc2)cc1 : 124
c1cc(CN2CCCNCCNCCCNCC2)ccc1CN1CCCNCCNCCCNCC1 : 120
Cn1cc(CNCC2CCN(c3ncc(C(=O)NO)cn3)CC2)c2ccccc21 : 4.24
C=CC(=O)N1CCc2ccc(-n3c(=O)ccc4cnc5ccc(-c6cnn(C)c6)cc5c43)cc21 : 2.44

Could you tell me viability (% of control) for each of these compounds? They are listed below.
1. CCCNS(=O)(=O)Nc1ncnc(OCCOc2ncc(Br)cn2)c1-c1ccc(Br)cc1
2. OCCN1C[C@H](O)[C@@H](O)[C@H](O)[C@@H]1CO
3. OCCNC1CCCc2c1[nH]c1ccc(-c3ccccc3)cc21 (stereo not drawn)
4. COc1ccc(Nc2cc(-c3cnc(N)nc3)nc(N3CCOCC3)n2)cn1
5. C[C@H](CCC(=O)O)[C@H]1CCC2C3C[C@H](O)[C@@H]4C[C@H](O)CC[C@]4(C)C3CC[C@@]21C (stereo partly drawn)
6. c1cc(N[C@@H]2CCNC2)nc(-c2cnc3ccc(-c4cn[nH]c4)cn23)c1

117
103
0.798
25.7
120
3.36

Give viability (% of control) for all compounds that follow.
1. C[C@H]1[C@@H](OC(=O)CCC(=O)O)O[C@@H]2O[C@@]3(C)CC[C@@H]4[C@H](C)CC[C@@H]1[C@@]24OO3
2. CCc1cc(C(C)=NOCc2ccc(C3CCCCC3)c(C(F)(F)F)c2)ccc1CN1CC(C(=O)O)C1
3. N#CC(=Cc1ccc(O)c(O)c1)C(=O)NCc1ccccc1
4. CC(C(C)N1CC(=O)NC(=O)C1)N1CC(=O)NC(=O)C1 (stereo not drawn)
5. Nc1nc(=O)n([C@H]2CSC(CO)O2)cc1F (stereo partly drawn)
6. C=Cc1c(C)c2cc3nc(cc4[nH]c(cc5nc(cc1[nH]2)C(C)=C5CCC(=O)O)c(CCC(=O)OC)c4C)[C@@]1(C)C3=CC=C(C(=O)OC)[C@H]1C(=O)OC

5.3
19.7
45.8
27.4
102
3.29

Record viability (% of control) per entry; entries follow.
1. O=C(O)CCCCC(CCSCc1ccccc1)SCc1ccccc1 (stereo not drawn)
2. CC(C)(C)[N+]([O-])=Cc1ccc(S(=O)(=O)O)cc1S(=O)(=O)O
3. NC(=O)c1cccc(-c2cccc(OC(=O)NC3CCCCC3)c2)c1
4. CO[C@@H]1[C@@H](O)[C@H](O)[C@@H](n2c3c(Cl)cccc3c3c4c(c5c6cccc(Cl)c6[nH]c5c32)C(=O)NC4=O)O[C@@H]1CO

23.9
111
91.7
5.01

----------
Assay: Primary qHTS for inhibitors of nuclear receptor binding SET domain protein 2 (NSD2) in an isogenic RCH-ACV NSD2 p.E1099K mutant (9B) (AID 1645876); note: nearly all actives have a fitted effect of over 70% in size
Conditions: RCH-ACV (leukaemia line) NSD2 E1099K (9B) viability, CellTiter-Glo, 72 h; series mostly up to 44.9 µM
Results filed as inconclusive are left out. Activity calls are given as the source filed them. Calls follow the shape of the dose curve; as a rule, active = well fitted inhibition curve with a large enough effect; inconclusive = small, poorly fitted or top-dose-only effect; inactive = flat fitted curve, though single readings scatter. Starred links: 1 amine or outer side, 2 acyl side, 3 side chain; linkers in the order of their positions; H or OH if unused. Positions of bridges follow the written chain, without caps; N, C: chain ends. Non-standard residues stand in square brackets, D forms with d. Residues, ends and D or L forms follow the SMILES beside them. Chains are numbered I, II in the order given. Actinocin(9to1) = Cc1c2oc3c(C)ccc(C(=O)[*:1])c3nc-2c(C(=O)[*:2])c(N)c1=O; NMeV = CN[CH](C(=O)O)C(C)C; Sar = CNCC(=O)O
Can you answer with just one of these options? active, inactive

CC(=O)SCC(Cc1ccccc1)C(=O)NCC(=O)OCc1ccccc1 (stereo not drawn) : inactive
COc1ccc(C=Cc2cc(OC)c(OC)c(OC)c2)cc1NC(=O)[C@H](N)CO : active
OC[C@@H](O)[C@@H](O)[C@H](O)[C@@H](O)CO : inactive
CCN(CC)CCCCNc1ncc2c(n1)N(C)C(=O)N(c1c(Cl)c(OC)cc(OC)c1Cl)C2 : active
Cc1c2oc3c(C)ccc(C(=O)NC4C(=O)NC(C(C)C)C(=O)N5CCCC5C(=O)N(C)CC(=O)N(C)C(C(C)C)C(=O)OC4C)c3nc-2c(C(=O)NC2C(=O)NC(C(C)C)C(=O)N3CCCC3C(=O)N(C)CC(=O)N(C)C(C(C)C)C(=O)OC2C)c(N)c1=O (stereo not drawn) (I: TVP[Sar][NMeV] / II: TVP[Sar][NMeV]; ester I:1-I:C, II:1-II:C; linker I:N-II:N via Actinocin(9to1); configuration not given here) : active

What was the test verdict on `C[C@@H](Cc1cc2c(c(C(N)=O)c1)N(CCCO)CC2)NCCOc1ccccc1OCC(F)(F)F` ?
inactive

I would be grateful if you could indicate the recorded call for `CCC[C@H]1C[C@H](C(=O)N[C@@H]([C@@H]2O[C@@H](SC)[C@@H](O)[C@@H](O)[C@@H]2O)[C@H](C)Cl)N(C)C1` .
inactive

So what was the verdict on `CC(C)c1cnn2c(NCc3ccccc3)cc(NCCCCCCN)nc12` in this test?
active

// return assay outcome for `O=[N+]([O-])c1cn2c(n1)OC[C@@H](OCc1ccc(OC(F)(F)F)cc1)C2`
inactive

Field: outcome | Entry: `Cc1coc2c1C(=O)C(=O)c1c-2ccc2c(C)cccc12`
inactive

Assay outcome for OCCNC1CCCc2c1[nH]c1ccc(-c3ccccc3)cc21 (stereo not drawn) : what was it?
active

Can you look up the reported call for `O=C(Nc1cccc(Nc2ncc(Br)c(NCCc3cnc[nH]3)n2)c1)N1CCCC1` for me?
active

Fill in: this test's call for `CCCCCCCCCCCCc1ccc(S(=O)(=O)Nc2nncs2)cc1` is ___
inactive

Short answer needed: outcome of this test for `C=C(C)[C@@H]1CC[C@]2(C)CC[C@]3(C)[C@H](CC[C@@H]4[C@@]5(C)CC[C@H](O)C(C)(C)[C@H]5CC[C@]43C)[C@@H]12` ?
inactive

Origin of values: PubChem BioAssay (NCATS)
